Test system: A549
experiment summary: Euclidean distance of Cell Painting phenotypic profile (signed KS, 77 features) to DMSO centroid (dimensionless distance); higher = stronger phenotypic change vs DMSO (phenoactivity)
condition label: 48 h; 5 or 10 uM (library dependent)
Structures can show the parent of a compound that is named as a salt.
recorded endpoint: Euclidean distance

# compound, Euclidean distance
records = [
    ("CN(C)Cc1c[nH]c2ccccc12", 0.885),
    ("CN1[C@@H]2C[C@@H](OC(=O)[C@H](CO)c3ccccc3)C[C@H]1[C@@H]1O[C@@H]12 [Scopolamine HBr trihydrate]", 1.25),
    ("O=c1c2ccccc2[se]n1-c1ccccc1", 1.48),
    ("CN(C)C(=O)Oc1ccc[n+](C)c1 [Pyridostigmine Bromide]", 0.961),
    ("CC(C)OC(=O)[C@H](C)N[P@](=O)(CO[C@H](C)Cn1cnc2c(N)ncnc21)Oc1ccccc1 [Tenofovir Alafenamide (GS-7340)]", 1.16),
    ("CCCN1CCO[C@@H]2c3cc(O)ccc3OC[C@H]21", 0.629),
    ("COc1ccc(C(CN(C)C)C2(O)CCCCC2)cc1 (centres undefined)", 0.49),
    ("CN1[C@H]2C[C@H](OC(=O)[C@H](CO)c3ccccc3)C[C@@H]1[C@@H](O)C2 [Anisodamine Hydrobromide]", 0.397),
]

Next, consider the following compound.
Lab book: Euclidean distance of NC[C@H](CC(=O)O)c1ccc(Cl)cc1 [(R)-baclofen] noted as 1.05

----------
Tested on: 786-O
experiment summary: Euclidean distance of Cell Painting phenotypic profile (signed KS, 77 features) to DMSO centroid (dimensionless distance); higher = stronger phenotypic change vs DMSO (phenoactivity)
condition label: 48 h; 5 or 10 uM (library dependent)
The following compounds are shown together with reported Euclidean distance values.
Respond numerically, and do not add a unit to the figure.

# compound, Euclidean distance
records = [
    ("NCCCNCCSP(=O)(O)O [Amifostine]", 2.98),
    ("NC(=O)CN1CC(O)CC1=O (configuration not stated) [Oxiracetam]", 1.07),
]

Next, consider the following compound.
Lab book: Euclidean distance of C#C[C@]1(O)CC[C@H]2[C@@H]3CCC4=CC(=O)CC[C@]4(C)[C@H]3CC[C@@]21C [Ethisterone] noted as 1.07

----------
Test system: OVCAR4
experiment summary: Euclidean distance of Cell Painting phenotypic profile (signed KS, 77 features) to DMSO centroid (dimensionless distance); higher = stronger phenotypic change vs DMSO (phenoactivity)
condition label: 48 h; 5 or 10 uM (library dependent)
Structures can show the parent of a compound that is named as a salt.
# binarize Euclidean distance: threshold 1 inclusive, high side YES, low side NO

Some solved entries appear below for comparison.
# molecule, class name
rows = [
    ("COc1cc2c(cc1OC)[C@@]13CCN4CC5=CCO[C@H]6CC(=O)N2[C@H]1[C@H]6[C@H]5C[C@H]43 [Brucine sulfate salt hydrate]", "NO"),
    ("O=C(CBr)N1CC([N+](=O)[O-])([N+](=O)[O-])C1", "NO"),
]

Data request: Could you verify whether the entry C[N+]12CCC(CC1)C(OC(=O)C(O)(c1ccccc1)c1ccccc1)C2 (centres undefined) [Clidinium Bromide] shows Euclidean distance of no less than 1?
Data returned: NO

Data request: Could you verify whether the entry NC(=O)CN1CC(O)CC1=O (centres undefined) shows Euclidean distance of no less than 1?
Data returned: NO

Data request: Could you verify whether the entry "C[C@@H]1O[C@@H](O[C@H]2C[C@@H](O)[C@]3(CO)[C@H]4[C@H](O)C[C@]5(C)[C@@H](C6=CC(=O)OC6)CC[C@]5(O)[C@@H]4CC[C@]3(O)C2)[C@H](O)[C@H](O)[C@H]1O" shows Euclidean distance of no less than 1?
Data returned: YES

Data request: Could you verify whether the entry CC(=O)c1c(O)cc(C)oc1=O [Sodium dehydroacetate] shows Euclidean distance of no less than 1?
Data returned: NO

Data request: Could you verify whether the entry Cc1ncc(CNC(=O)N(CCCl)N=O)c(N)n1 [Nimustine Hydrochloride] shows Euclidean distance of no less than 1?
Data returned: NO

Data request: Could you verify whether the entry "Cc1ccccc1-n1c(Cn2ncc3c(N)ncnc32)nc2cccc(C)c2c1=O" shows Euclidean distance of no less than 1?
Data returned: YES

Data request: Could you verify whether the entry O=P(O)(NCCCl)NCCCl [Palifosfamide] shows Euclidean distance of no less than 1?
Data returned: YES

Data request: Could you verify whether the entry CN1c2ccccc2C(NCCCCCCC(=O)O)c2ccc(Cl)cc2S1(=O)=O (centres undefined) [Tianeptine sodium] shows Euclidean distance of no less than 1?
Data returned: YES

Data request: Could you verify whether the entry "O=[N+]([O-])c1ncc[nH]1" shows Euclidean distance of no less than 1?
Data returned: NO

Data request: Could you verify whether the entry CCCN1C[C@H](CSC)C[C@@H]2c3cccc4[nH]cc(c34)C[C@H]21 [Pergolide Mesylate] shows Euclidean distance of no less than 1?
Data returned: YES
